# Tested on: E. coli
# Protocol Summary: MIC values, E. coli (Tables 1-4)
# Assay type: cell-based
Item-by-item account of MIC E. coli

The cases that follow already have their MIC E. coli on record.
>  <Molecule>
COC1C=COC2(C)Oc3c(C)c(O)c4c(=O)c(c5oc6cc(N7CC8CCCNC8C7)cc(O)c6nc-5c4c3C2=O)NC(=O)C(C)=CC=CC(C)C(O)C(C)C(O)C(C)C(O)C1C (stereo not drawn) [Compound 142]

>  <MIC E. coli>
>8 µg/mL

$$$$
>  <Molecule>
COC1C=COC2(C)Oc3c(C)c(O)c4c(=O)c(c5sc6cc(N7CC(C)N(CC8CC8)CC7C)ccc6nc-5c4c3C2=O)NC(=O)C(C)=CC=CC(C)C(O)C(C)C(O)C(C)C(O)C1C (stereo not drawn)

>  <MIC E. coli>
>8 µg/mL

$$$$

Q: Entry `CCOc1c(N2CCN(CC)CC2)ccc2nc3c4c5c6c(C)c(O)c4c(=O)c(c-3oc12)NC(=O)/C(C)=C\C=C\[C@H](C)[C@H](O)[C@@H](C)[C@@H](O)[C@@H](C)[C@H](O)[C@H](C)[C@@H](OC)/C=C/O[C@@](C)(O6)C5=O` : reported MIC E. coli = ?
A: 8 µg/mL

----------
# Protocol Summary: in vivo
# Measurement Parameters: albino, guinea pig, ip, 5 mg/kg
Endpoint Label: Tmax (h)
A number alone suffices; assume h.

Q: Entry C[C@H]1COc2c(N3CCN(C)CC3)c(F)cc3c(=O)c(C(=O)O)cn1c23 [Levofloxacin, levofloxacin] : reported Tmax = ?
A: 2

----------
# Protocol Summary: in vivo
# Measurement Parameters: albino, guinea pig, ip, 12.5 mg/kg
Endpoint Label: concentration at 12 h (ng/mL)
A number alone suffices; assume ng/mL.

Q: Entry CO[C@H]1/C=C/O[C@@]2(C)Oc3c(C)c(O)c4c(O)c(c(/C=N/N5CCN(C)CC5)c(O)c4c3C2=O)NC(=O)/C(C)=C\C=C\[C@H](C)[C@H](O)[C@@H](C)[C@@H](O)[C@@H](C)[C@H](OC(C)=O)[C@@H]1C [Rifampin, rifampin, reference compound] : reported concentration at 12 h = ?
A: 140

----------
Item-by-item account of MIC E. coli
# Test system: E. coli
# Protocol Summary: MIC values, E. coli (Tables 1-4)
# Format: cell-based

The cases that follow already have their MIC E. coli on record.
>  <Compound>
CO[C@H]1/C=C/O[C@@]2(C)Oc3c(C)c(O)c4c(=O)c(c5oc6c7c(cc(O)c6nc-5c4c3C2=O)N(Cc2ccccc2)CCN7Cc2ccccc2)NC(=O)/C(C)=C\C=C\[C@H](C)[C@H](O)[C@@H](C)[C@@H](O)[C@@H](C)[C@H](OC(C)=O)[C@@H]1C [Compound 85]

>  <Reported Measurement>
>8 mg/L

$$$$
>  <Compound>
CO[C@H]1/C=C/O[C@@]2(C)Oc3c(C)c(O)c4c(=O)c(c5oc6cc(N7CCCC7)c(C)c(C)c6nc-5c4c3C2=O)NC(=O)/C(C)=C\C=C\[C@H](C)[C@H](O)[C@@H](C)[C@@H](O)[C@@H](C)[C@H](O)[C@@H]1C [Compound 120]

>  <Reported Measurement>
>8 mg/L

$$$$
>  <Compound>
CO[C@H]1/C=C/O[C@@]2(C)Oc3c(C)c(O)c4c(=O)c(c5oc6cc(N7CCOCC7)cc(O)c6nc-5c4c3C2=O)NC(=O)/C(C)=C\C=C\[C@H](C)[C@H](O)[C@@H](C)[C@@H](O)[C@@H](C)[C@H](O)[C@@H]1C [Compound 131]

>  <Reported Measurement>
>8 mg/L

$$$$

Now consider the entry below.
Q: Entry CO[C@H]1/C=C/O[C@@]2(C)Oc3c(C)c(O)c4c(=O)c(c5oc6cc(N7CCC(N(C)C)CC7)cc(O)c6nc-5c4c3C2=O)NC(=O)/C(C)=C\C=C\[C@H](C)[C@H](O)[C@@H](C)[C@@H](O)[C@@H](C)[C@H](O)[C@@H]1C [Compound 18] : reported MIC E. coli = ?
A: 4 mg/L

----------
Item-by-item account of MIC E. coli
# Test system: E. coli
# Protocol Summary: MIC values, E. coli (Tables 1-4)
# Type: cell-based
A number alone suffices; assume µg/mL.

Q: Lookup: MIC E. coli / E. coli / CO[C@H]1/C=C/O[C@@]2(C)Oc3c(C)c(O)c4c(=O)c(c5oc6cc(N7CCN(CCO)CC7)cc(O)c6nc-5c4c3C2=O)NC(=O)/C(C)=C\C=C\[C@H](C)[C@H](O)[C@@H](C)[C@@H](O)[C@@H](C)[C@H](O)[C@@H]1C [Compound 101]
A: 8

Q: What do we get for COC1C=COC2(C)Oc3c(C)c(O)c4c(=O)c(c5oc6cc(N7CCN8CCCC8C7)cc(O)c6nc-5c4c3C2=O)NC(=O)C(C)=CC=CC(C)C(O)C(C)C(O)C(C)C(O)C1C (centres unmarked) [Compound 87] ?
A: 4

----------
Item-by-item account of MIC E. coli
# System: E. coli
# Protocol Summary: MIC values, E. coli (Tables 1-4)
# Type: cell-based
A number alone suffices; assume µg/mL.

>  <Compound>
CO[C@H]1/C=C/O[C@@]2(C)Oc3c(C)c(O)c4c(=O)c(c5oc6cc(N7CCC(c8ccccc8)CC7)cc(O)c6nc-5c4c3C2=O)NC(=O)/C(C)=C\C=C\[C@H](C)[C@H](O)[C@@H](C)[C@@H](O)[C@@H](C)[C@H](OC(C)=O)[C@@H]1C [Compound 57]

>  <Target Of Assay>
E. coli

>  <Unit String>
µg/mL

>  <MIC E. coli>
8

$$$$
>  <Compound>
COC1C=COC2(C)Oc3c(C)c(O)c4c(=O)c(c5sc6cc(N7CCN8CCCC8C7)ccc6nc-5c4c3C2=O)NC(=O)C(C)=CC=CC(C)C(O)C(C)C(O)C(C)C(O)C1C (centres unmarked) [Compound 77]

>  <Target Of Assay>
E. coli

>  <Unit String>
µg/mL

>  <MIC E. coli>
2

$$$$
>  <Compound>
COC1C=COC2(C)Oc3c(C)c(O)c4c(=O)c(c5sc6cc(N7CCN8CCCC8C7)ccc6nc-5c4c3C2=O)NC(=O)C(C)=CC=CC(C)C(O)C(C)C(O)C(C)C(OC(C)=O)C1C (centres unmarked) [Compound 76]

>  <Target Of Assay>
E. coli

>  <Unit String>
µg/mL

>  <MIC E. coli>
4

$$$$

Q: Entry CO[C@H]1/C=C/O[C@@]2(C)Oc3c(C)c(O)c4c(=O)c(c5oc6cc(N7CC8CCC(C7)N8)cc(O)c6nc-5c4c3C2=O)NC(=O)/C(C)=C\C=C\[C@H](C)[C@H](O)[C@@H](C)[C@@H](O)[C@@H](C)[C@H](O)[C@@H]1C [Compound 16] : reported MIC E. coli = ?
A: 4

----------
Item-by-item account of MIC E. coli
# System: E. coli
# Protocol Summary: MIC values, E. coli (Tables 1-4)
# Assay type: cell-based
A number alone suffices; assume µg/mL.

>  <Compound>
CO[C@H]1/C=C/O[C@@]2(C)Oc3c(C)c(O)c4c(=O)c(c5oc6cc(N7CCN(CCF)CC7)cc(O)c6nc-5c4c3C2=O)NC(=O)/C(C)=C\C=C\[C@H](C)[C@H](O)[C@@H](C)[C@@H](O)[C@@H](C)[C@H](O)[C@@H]1C

>  <Target Of Assay>
E. coli

>  <MIC E. coli, µg/mL>
8

$$$$
>  <Compound>
COCCN1CCN(c2cc(O)c3nc4c5c6c7c(C)c(O)c5c(=O)c(c-4oc3c2)NC(=O)/C(C)=C\C=C\[C@H](C)[C@H](O)[C@@H](C)[C@@H](O)[C@@H](C)[C@H](O)[C@H](C)[C@@H](OC)/C=C/O[C@@](C)(O7)C6=O)CC1

>  <Target Of Assay>
E. coli

>  <MIC E. coli, µg/mL>
8

$$$$
>  <Compound>
COC1C=COC2(C)Oc3c(C)c(O)c4c(=O)c(c5oc6cc(N7CC(C)NCC7C)cc(O)c6nc-5c4c3C2=O)NC(=O)C(C)=CC=CC(C)C(O)C(C)C(O)C(C)C(O)C1C (centres unmarked)

>  <Target Of Assay>
E. coli

>  <MIC E. coli, µg/mL>
4

$$$$

Now consider the entry below.
Q: Entry `CCCS(=O)(=O)NC1CCN(c2cc(O)c3nc4c5c6c7c(C)c(O)c5c(=O)c(c-4oc3c2)NC(=O)/C(C)=C\C=C\[C@H](C)[C@H](O)[C@@H](C)[C@@H](O)[C@@H](C)[C@H](OC(C)=O)[C@H](C)[C@@H](OC)/C=C/O[C@@](C)(O7)C6=O)CC1` : reported MIC E. coli = ?
A: 8
